experiment: Absolute bioavailability in human; type: ADME, organism-based; conditions: in vivo
Examples of molecules with documented bioavailability follow.
test-readout: bioavailability (%)

# molecule, units-symbol, data-value
records = [
    ("CN1CC(=O)NC1=N", "%", 80),
    ("CCC[C@@H]1C[C@@H](C(=O)N[C@@H]([C@H]2O[C@H](SC)[C@H](O)[C@@H](O)[C@H]2O)[C@@H](C)O)N(C)C1", "%", 25),
    ("CCCc1cc(=O)[nH]c(=S)[nH]1", "%", 85),
    ("CC(C)[C@H](N)C(=O)OCCOCn1cnc2c(=O)[nH]c(N)nc21", "%", 80),
    ("NCCCC[C@H](N[C@@H](CCc1ccccc1)C(=O)O)C(=O)N1CCC[C@H]1C(=O)O [LISINOPRIL ANHYDROUS]", "%", 27),
    ("COc1ccc2c(c1)c(CC(=O)O)c(C)n2C(=O)c1ccc(Cl)cc1", "%", 99),
    ("CC(C)C[C@H](N)C(=O)O", "%", 100),
    ("C[C@H](N[C@@H](CCc1ccccc1)C(=O)O)C(=O)N1CCC[C@H]1C(=O)O [ENALAPRILAT ANHYDROUS]", "%", 8),
    ("CN1C(C(=O)Nc2ccccn2)=C(O)c2ccccc2S1(=O)=O", "%", 100),
    ("CCOC(=O)[C@H](CCc1ccccc1)N[C@@H](C)C(=O)N1CCC[C@H]1C(=O)O", "%", 51),
    ("N=C(N)NC(=O)c1nc(Cl)c(N)nc1N [AMILORIDE]", "%", 50),
    ("N=C(N)NCCCNC(=O)[C@@H]1CCCCN1C(=O)[C@@H](CC1CCCCC1)NCC(=O)O", "%", 5),
    ("N[C@@H](Cc1ccc(O)c(O)c1)C(=O)O", "%", 100),
    ("O=C(O)Cc1ccccc1Nc1c(Cl)cccc1Cl", "%", 54),
    ("O=C1OC2(c3ccc(O)cc3Oc3cc(O)ccc32)c2ccccc21", "%", 99),
    ("N[C@@H](Cc1ccccc1)C(=O)O", "%", 100),
    ("CC(C)Cc1ccc(C(C)C(=O)O)cc1 (stereo not given)", "%", 85),
    ("C[C@](N)(Cc1ccc(O)c(O)c1)C(=O)O", "%", 26),
    ("O=C(N[C@H](CO)[C@H](O)c1ccc([N+](=O)[O-])cc1)C(Cl)Cl", "%", 82),
    ("Cc1cc(NC(=O)C2=C(O)c3ccccc3S(=O)(=O)N2C)no1", "%", 100),
]

Value source: ChEMBL document CHEMBL1158536
